# system_name: DNA polymerase iota (Homo sapiens) (UniProt Q9UNA4)
# Sequence (Q9UNA4 whole entry, looked up): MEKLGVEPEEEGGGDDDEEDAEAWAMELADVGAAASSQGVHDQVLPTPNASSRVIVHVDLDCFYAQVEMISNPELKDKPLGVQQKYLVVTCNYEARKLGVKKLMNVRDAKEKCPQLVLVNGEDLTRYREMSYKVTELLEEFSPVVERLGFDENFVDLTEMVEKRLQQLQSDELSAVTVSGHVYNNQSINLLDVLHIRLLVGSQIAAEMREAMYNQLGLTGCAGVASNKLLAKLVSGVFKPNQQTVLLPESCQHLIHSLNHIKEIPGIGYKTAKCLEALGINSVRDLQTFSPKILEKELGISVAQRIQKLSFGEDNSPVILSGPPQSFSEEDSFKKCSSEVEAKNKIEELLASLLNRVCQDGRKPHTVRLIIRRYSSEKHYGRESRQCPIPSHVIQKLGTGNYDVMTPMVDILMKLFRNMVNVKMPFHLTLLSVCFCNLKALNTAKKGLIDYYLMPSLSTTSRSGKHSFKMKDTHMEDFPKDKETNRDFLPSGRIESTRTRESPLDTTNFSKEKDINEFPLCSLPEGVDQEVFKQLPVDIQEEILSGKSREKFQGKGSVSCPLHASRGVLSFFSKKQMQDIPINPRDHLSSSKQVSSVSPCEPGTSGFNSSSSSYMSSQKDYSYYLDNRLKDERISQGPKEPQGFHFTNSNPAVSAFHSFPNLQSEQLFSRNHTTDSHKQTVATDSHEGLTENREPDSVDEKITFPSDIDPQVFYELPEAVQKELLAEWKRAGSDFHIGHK
# protocol_summary: qHTS for Inhibitors of Polymerase Iota
# assay_conditions: Pol iota fluorescent replication assay, 10 min; series mostly up to 115 µM
In all, about 390,000 compounds went through this assay and about 4,000 (1%) were called active. Inconclusive results (about 7%) are left out. Calls follow the shape of the dose curve; as a rule, active = well fitted inhibition curve with a large enough effect; inconclusive = small, poorly fitted or top-dose-only effect, or another doubt; inactive = no such curve, though single readings can be large or run the other way. This is one part of a sample in which actives are shown more often than they occur.
Allowed answers: True (active), False (inactive)

Ask | Field: outcome | Entry: COc1ccc(OC)c2sc(N3CCN(C(=O)C4COc5ccccc5O4)CC3)nc12 (stereo unspecified)
Reply | False

Ask | Which result was noted for this compound in the test: "Cc1cc(/C=N/Nc2ccc([N+](=O)[O-])cn2)c(C)n1-c1cccc(C(=O)O)c1"
Reply | True

Ask | What did the test return for "CCC(=O)N1CCc2cc(Br)cc(S(=O)(=O)CCC(=O)NCc3ccccc3OC)c21" ?
Reply | False

Ask | Name the outcome recorded for "COc1ccccc1-c1cc2nc(C)c(CCC(=O)NC3CCCCC3)c(C)n2n1" in the assay.
Reply | False

Ask | Just curious, what result did "CN(Cc1ccccc1)C(=O)c1cc2c(=O)n(C)c3ccccc3c2s1" get here?
Reply | False

Ask | Per the records of this test, what outcome belongs to "O=C(NC(=S)Nc1cc(C(F)(F)F)ccc1N1CCOCC1)c1ccc(-c2cccc(Cl)c2)o1" ?
Reply | False

Ask | # outcome recorded in this test, key = "Cc1cc(/C=N/NC(=O)CC2(C)OCCO2)c(C)n1-c1ccc(Cl)c(Cl)c1"
Reply | False

Ask | So what was the verdict on "Cc1c(CCO)sc[n+]1CC(=O)c1ccc2ccccc2c1" in this test?
Reply | False

Ask | // outcome(item) with item = "O=C(CN1C(=O)COc2ccccc21)Nc1ccc(F)cc1"
Reply | False

Ask | Please share the test call associated with NC1=NC(c2cc(F)cc(F)c2)n2c(nc3ccccc32)N1 (stereo unspecified) .
Reply | False

Ask | Test call, this compound: CCCC12CN3CC(C)(CN(C1)C3c1ccccc1Cl)C2=O (stereo unspecified)
Reply | False

Ask | Which outcome was assigned to "CC(C)(C)OC(=O)N1CCC(c2c(C(=O)Nc3ccc4c(c3)OCO4)cnn2-c2ccccc2)CC1" in this test?
Reply | False

Ask | Outcome logged for O=C1CCCc2cc(S(=O)(=O)N3CCCC(C(=O)NCc4ccccc4)C3)ccc2N1 (stereo unspecified) in this assay:
Reply | False

Ask | Hi team, can someone confirm the assay call for "CCc1ccc(NC(=O)CN2C(=O)CSC2=O)cc1" ?
Reply | False

Ask | # outcome recorded in this test, key = "O=S(=O)(Nc1cccc2cccnc12)c1cccc2cccnc12"
Reply | False

Ask | Hi team, can someone confirm the assay call for "S=c1[nH]c(=S)c2n[nH]nc2[nH]1" ?
Reply | False

Ask | Field: outcome | Entry: "Cn1cccc1/C=C1\SC(=O)N(CC(=O)Nc2ccc(F)cc2)C1=O"
Reply | True

Ask | Assay result, entry "CN(c1ccccc1)S(=O)(=O)c1ccc(Cl)c(C(=O)OCC(=O)N2CCOCC2)c1" — outcome?
Reply | False

Ask | Answer briefly: the call reported for "COC(=O)c1ccc(NC(=O)c2cnn(-c3ccc(Cl)cc3)c2C2CCN(C(=O)OC(C)(C)C)CC2)cc1" in this assay.
Reply | True

Ask | # outcome recorded in this test, key = "Cc1cc(C=O)c(C)n1-c1ccc(NC2CCCCC2)c([N+](=O)[O-])c1"
Reply | False

Ask | Fill in: this test's call for "COC(=O)c1cnc(N2CCN(c3ccccc3OC)CC2)c2ccccc12" is ___
Reply | False

----------
# system_name: DNA polymerase iota (Homo sapiens)
# protocol_summary: qHTS for Inhibitors of Polymerase Iota
# assay_conditions: Pol iota fluorescent replication assay, 10 min; series mostly up to 115 µM
The campaign covered roughly 390,000 compounds. About 4,000 (1%) were called active. Roughly 7% stayed inconclusive and do not appear here. Calls follow the shape of the dose curve; as a rule, active = well fitted inhibition curve with a large enough effect; inconclusive = small, poorly fitted or top-dose-only effect, or another doubt; inactive = no such curve, though single readings can be large or run the other way. The list comes from a sample in which actives are over-represented; it also holds close analogues and randomly drawn compounds.
Choose the fitting class; nothing outside YES for active, NO for inactive is accepted.

Ask | Give the logged outcome of this assay for the following compound: "O=C(COC(=O)c1ccccc1O)NCc1ccco1"
Reply | YES

Ask | What was the test verdict on "Cn1c(N)c(C(=O)COC(=O)c2ccccc2NCc2ccco2)c(=O)n(C)c1=O" ?
Reply | NO

Ask | Dear all, I need the recorded test outcome for "CN(c1ccccc1)S(=O)(=O)c1ccc(Cl)c(C(=O)OCC(=O)NCc2ccco2)c1" , thank you.
Reply | YES

Ask | Short answer needed: outcome of this test for "COc1ccc(CCNC(=O)COC(=O)c2cnc(Cl)c(Cl)c2)cc1" ?
Reply | NO

Ask | Short answer needed: outcome of this test for CCCC(=O)N1c2ccc(-c3csc(N)n3)cc2CC1C (stereo unspecified) ?
Reply | NO

Ask | In this assay, the call recorded for "O=C(COC(=O)c1ccccc1C(=O)N1CCN(c2ccccc2)CC1)NCc1ccccc1" was what?
Reply | NO

Ask | For "Cc1cc(C(=O)OCC(=O)NCc2ccco2)c(C)n1-c1ccccc1" , what call appears in the results of this test?
Reply | YES

Ask | Answer briefly: the call reported for "O=C(COC(=O)c1cc(S(=O)(=O)N2CCOCC2)ccc1Cl)NCCc1ccccc1" in this assay.
Reply | NO

Ask | Recorded test outcome, item "CN(Cc1ccccc1)c1ncnc2onc(-c3ccc(F)cc3)c12"
Reply | NO

Ask | Assay result, entry "O=C(CCCOc1ccccc1)NCc1ccco1" — outcome?
Reply | NO

Ask | Given CC(CCCc1ccccc1)NC(=O)c1nn(-c2ccc(Cl)cc2)nc1CO (stereo unspecified) , state the outcome it received in this test.
Reply | NO

----------
# system_name: DNA polymerase iota (Homo sapiens) (UniProt Q9UNA4)
# protocol_summary: qHTS for Inhibitors of Polymerase Iota; also: potency is read from the fitted curve at half-maximal effect
# assay_conditions: Pol iota fluorescent replication assay, 10 min; series mostly up to 115 µM
Out of some 390,000 compounds screened, about 4,000 (1%) were called active. Roughly 7% stayed inconclusive and do not appear here. The entries come from a sample that favours actives as a whole.
attribute_measured: Potency

A selection of reference data follows.
compound	Potency
Clc1ccccc1CSc1nnc(-c2ccco2)c(-c2ccco2)n1	14.1 µM (active)
C(=Nc1ccc(/C=C/c2ccnc3ccccc23)cc1)Nc1ccc(/C=C/c2ccnc3ccccc23)cc1	inactive
CCN(CCCNC(=O)c1cc(Nc2ccc(OC)cc2)nc2ccccc12)c1cccc(C)c1	inactive
CSc1ccccc1-c1nnc(NC(=O)c2ccc3c(c2)OCCO3)o1	inactive
O=C(NC1CC(=O)N(c2ccccc2)C1)c1ccco1 (configuration not stated)	inactive

Ask | Input COc1ccc(N=C2SC(C(=O)Nc3ccc(F)cc3)CC(=O)N2C)cc1 (configuration not stated) , output reported Potency.
Reply | inactive

Ask | Respond only with Potency recorded for "CCN1CCN(CCCNC(=O)c2cnn(-c3ccc(C)cc3C)c2C2CCN(C(=O)OC(C)(C)C)CC2)CC1"
Reply | inactive

Ask | Recall and state the measured Potency for "CSc1nc(-c2ccccc2Cl)nc2c1Cc1c(CO)cnc(C)c1O2" .
Reply | inactive

----------
# system_name: DNA polymerase iota (Homo sapiens)
# protocol_summary: qHTS for Inhibitors of Polymerase Iota
# assay_conditions: Pol iota fluorescent replication assay, 10 min; series mostly up to 115 µM
The campaign covered roughly 390,000 compounds. About 4,000 (1%) were called active. About 7% were inconclusive and are not listed. Calls come from the whole dose curve; as a rule, active = well fitted inhibition curve with a large enough effect; inconclusive = small, poorly fitted or top-dose-only effect, or another doubt; inactive = no such curve, though single readings can be large or run the other way. This excerpt belongs to a sample that is enriched for actives.
Allowed answers: active, inactive

Ask | // return assay outcome for "COC(=O)C1=C(C)NC(=O)/C1=C/c1ccc(CNS(=O)(=O)c2ccc(C)cc2)o1"
Reply | inactive

Ask | Short answer needed: outcome of this test for CCC(C)Cn1c(O)cc2nn(-c3nc4ccccc4s3)c(=O)c-2c1C (stereo not given) ?
Reply | active

Ask | Entry "O=c1/c(=C/c2ccc(CNS(=O)(=O)c3ccccc3)o2)sc2n1CCN=2" : call = ?
Reply | active

Ask | // return assay outcome for "O=S(=O)(NCc1ccccc1)c1ccc(S(=O)(=O)N2CCCC2)cc1"
Reply | inactive

Ask | Name the outcome recorded for "CC1(C)CC(=O)c2cc(C(=O)NCc3ccccc3)c(=O)[nH]c2C1" in the assay.
Reply | inactive

----------
# system_name: DNA polymerase iota (Homo sapiens) (UniProt Q9UNA4)
# protocol_summary: qHTS for Inhibitors of Polymerase Iota
# assay_conditions: Pol iota fluorescent replication assay, 10 min; series mostly up to 115 µM
# Description: DNA polymerases, such as Pol iota, are specifically involved in DNA repair. Pol iota specifically plays an important role in translesion synthesis, where the normal high-fidelity DNA polymerases cannot proceed and DNA synthesis stalls. […] Thus, while pol eta's (and most likely iota's) normal function is to protect humans against the deleterious consequences of DNA damage, under certain conditions they can have deleterious effects on human health. […]
Among all 390,000 compounds or so, about 4,000 (1%) were called active. Inconclusive results (about 7%) are left out. Calls follow the shape of the dose curve; as a rule, active = well fitted inhibition curve with a large enough effect; inconclusive = small, poorly fitted or top-dose-only effect, or another doubt; inactive = no such curve, though single readings can be large or run the other way. The sample as a whole holds a higher share of actives than the screen did.
Classes to choose from: label 1 = active, label 0 = inactive

Ask | Assay outcome for "Cc1c(NC(=O)Nc2ccc(F)c(Cl)c2)c(=O)n(-c2ccccc2)n1C" : what was it?
Reply | label 0

Ask | Assay outcome for "COc1cccc(NC(=O)CN2C(=O)c3ccccc3Sc3ncccc32)c1" : what was it?
Reply | label 0

Ask | In this assay, the call recorded for "Cc1ccc(OCC(=O)OCc2cc(=O)n3nc(C4CC4)sc3n2)cc1C" was what?
Reply | label 0

Ask | What did the test return for "CCOc1ccccc1NC(=O)Cn1c2ncccc2c(=O)n1-c1ccc(C)c(C)c1" ?
Reply | label 0

Ask | Which outcome was entered for the molecule "COc1ccccc1NC(=O)CN1C(=O)c2ccccc2Sc2ccc(C(=O)N3CCCC3)cc21" in this test?
Reply | label 1

Ask | Which result was noted for this molecule in the test: Oc1cc(O)c2c(c1)OC(c1ccc(O)c(O)c1)C(O)C2 (stereo not given)
Reply | label 1

Ask | Identify the outcome logged in this assay for the molecule shown: "CC(C)c1ccc2c(c1)c(SC(C)(C)C)c(CC(C)(C)C(=O)O)n2Cc1ccc(Cl)cc1"
Reply | label 1

Ask | // param item: "COC(=O)c1ccc2c(c1)N(CC(=O)Nc1ccc(C)c(C)c1)C(=O)c1ccccc1S2" ; yields the recorded call
Reply | label 0

Ask | Hey, what did the test say about "CCOC(=O)c1[nH]c(C)c(CCC(=O)N2CCN(c3ccccc3)CC2)c1C" ?
Reply | label 0

Ask | What classification did "CCOc1ccccc1CNC(=O)Nc1cn(CC(C)C)c(=O)c2ccccc12" end up with in this test?
Reply | label 1
